Test system: Escherichia coli TOP10;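 also: peptides expressed intracellularly from a pBAD plasmid library in pooled LB shake-flask culture, induced with 0.3% L-arabinose, DNA abundance read by NGS, three biological replicates, DESeq2 with apeglm shrinkage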
experiment_summary: shrunken log2 fold change of peptide-encoding DNA abundance (4.5 h post-induction vs induction); higher = less antimicrobial activity (less host growth inhibition)
condition_info: time post-induction: 4.5 h; library: site-saturation at positions 5, 18, 19, 20
Could you label it true (1) if measured shrunken log2 fold change is -0.009 or higher, and false (0) otherwise?

Problem: Quick check: does `RRIRMRPPRLPRPRPRPLIDPRP` have shrunken log2 fold change greater than or equal to -0.009?
Solution: true (1)

Problem: Test whether the sequence `RRIRRRPPRLPRPRPRPTCEPRP` records shrunken log2 fold change of -0.009 or higher.
Solution: true (1)

Cited source: the supplement of paper PMC9112550
